test: Primary qHTS for delayed death inhibitors of the malarial parasite plastid, 96 hour incubation; conditions: P. falciparum luciferase reporter growth; series mostly up to 28.7 µM
Screen size: about 320,000 compounds; about 22,000 (6.9%) were called active. Inconclusive results (about 27%) are left out. Calls follow the shape of the dose curve; as a rule, active = well fitted inhibition curve with a large enough effect; inconclusive = small, poorly fitted or top-dose-only effect, or another doubt; inactive = no such curve, though single readings can be large or run the other way. What follows is part of a selection rich in actives, with near analogues and random picks from the rest.
Give your call using only these classes: TRUE for active, FALSE for inactive

Tell me the recorded outcome of this test for `Cc1[nH]c(C)c(S(=O)(=O)N2CCN(c3cccc(C(F)(F)F)c3)CC2)c1C(=O)N1CCCC1` . FALSE

Tell me the recorded outcome of this test for `O=C(Cn1c(-c2cncs2)nc2ccccc21)NC1CCCC1` . TRUE

Tell me the recorded outcome of this test for `Cn1c(Nc2ccccc2)cc(=O)n(C)c1=O` . FALSE

Tell me the recorded outcome of this test for `CCc1ccc(C(=O)NN=C2CCCCCC2)s1` . FALSE

Tell me the recorded outcome of this test for `CC(=O)c1ccc(NC(=O)Nc2ccc([N+](=O)[O-])cc2C)cc1` . TRUE

Tell me the recorded outcome of this test for `COc1cc(C(=O)NNC(=O)c2ccc(S(=O)(=O)N3CCCCC3)cc2)cc(OC)c1OC` . FALSE

Tell me the recorded outcome of this test for `Cc1nn(Cc2ccc(Cl)cc2)c(Cl)c1/C=N/NC(=O)CNc1ccccc1F` . TRUE

Tell me the recorded outcome of this test for `COc1ccc(S(=O)(=O)N2CCC(C(=O)N3CCc4ccccc4C3)CC2)cc1OC` . TRUE

Tell me the recorded outcome of this test for `CC(=O)Nc1ccc(S(=O)(=O)Nc2nc(-c3ccc(C(C)(C)C)cc3)cs2)cc1` . TRUE

Tell me the recorded outcome of this test for `CC(=O)Nc1ccc(NC(=O)c2ccc3c(c2)C(=O)N(c2ccccc2C)C3=O)cc1` . FALSE

Tell me the recorded outcome of this test for `CCOc1ncccc1C(=O)NNC(=O)c1cccc(S(=O)(=O)Nc2ccccc2OC)c1` . FALSE

Tell me the recorded outcome of this test for `O=C(CN1CCN(c2ccccn2)CC1)NC1CCCCC1` . FALSE

Tell me the recorded outcome of this test for `CN1CCN(CC(=O)Nc2cccc([N+](=O)[O-])c2)CC1` . FALSE

Tell me the recorded outcome of this test for CCCn1c2ccccc2c2cnn(CC(=O)NCCCN3CCCCC3CC)c(=O)c21 (centres undefined) . FALSE

Tell me the recorded outcome of this test for `CCOc1cc(C(=O)N2CCc3cc(OC)c(OC)cc3C2)ccc1OC(F)F` . TRUE

Tell me the recorded outcome of this test for `CC(=O)c1ccc(S(=O)(=O)NCc2nnnn2-c2ccccc2)cc1` . FALSE

Tell me the recorded outcome of this test for `COC(=O)c1sccc1NC(=S)Nc1ccc(C)cc1` . FALSE

Tell me the recorded outcome of this test for `Cc1c(CCC(=O)O)c(=O)oc2c(C)c(OCc3ccccc3Cl)ccc12` . FALSE

Tell me the recorded outcome of this test for `CCOC(=O)CCc1c(C)c2ccc(OCc3nn[nH]n3)c(C)c2oc1=O` . FALSE

Tell me the recorded outcome of this test for `CC(C)(C)n1ncc2c(=O)n(Cc3c(Cl)cccc3Br)cnc21` . FALSE

Tell me the recorded outcome of this test for `COc1ccc(S(=O)(=O)N2CCC(C(=O)N3CCCC3)CC2)cc1C` . FALSE

Tell me the recorded outcome of this test for `CCOc1ccc(NC(=S)N2CCC(NC(=O)c3ccccc3)CC2)cc1` . FALSE

Tell me the recorded outcome of this test for `O=C(CN1CCC(O)(c2cccc(C(F)(F)F)c2)CC1)NCCc1ccccc1` . FALSE

Tell me the recorded outcome of this test for `Cc1nc2ccccc2c(=O)n1-c1ccc(Cl)cc1Cl` . FALSE
